procedure_summary: Reactive carbonyl species trapping activity of compound assessed as MGO adduct formation at 10 mM preincubated for 24 hrs with MGO measured after 5 hrs by LCMS analysis
Type: physicochemical
test_conditions: 10000 µM
Each item that follows carries a reported Activity.

compound: Cl.Cl.NCC(N)CCCNC(=O)CCn1cccc(O)c1=O (stereo unspecified)
Activity / %: 99
//
compound: CCCCN1CCN(C(=O)C(N)CN)CC1.Cl.Cl (stereo unspecified)
Activity / %: 93
//
compound: Cl.Cl.NCC(N)CC(=O)N1CCN(C(=O)CCn2cccc(O)c2=O)CC1 (stereo unspecified)
Activity / %: 99
//
compound: COc1cc(/C=C/C(=O)NCCCCC(N)CN)ccc1O.Cl.Cl (stereo unspecified)
Activity / %: 100
//
compound: Cc1c(O)c(=O)ccn1CCCNC(=O)CCC(N)CN.Cl.Cl (stereo unspecified)
Activity / %: 100
//
compound: Cc1c(O)c(=O)ccn1CCC(=O)NCCCCC(N)CN.Cl.Cl (stereo unspecified)
Activity / %: 99
